Kindly state IC50 for each of the entries shown.
subject_of_test: Human plasma kallikrein (Homo sapiens (Human))
measurement_notes: Determination of the IC50 for plasma kallikrein
particulars: read-out: IC50 (human PKal)
# output: bare number, implied unit nM

# IC50 lookup, item Nc1nn(Cc2ccc(Cn3ccccc3=O)cc2)cc1C(=O)NCCOc1cccc(Cl)c1
2.9

# IC50 lookup, item Nc1nn(Cc2ccc(Cn3ccccc3=O)cc2F)cc1C(=O)NCCOc1cccc(Cl)c1
7.6

---

Kindly state IC50 for each of the entries shown.
subject_of_test: Human plasma kallikrein (Homo sapiens (Human))
measurement_notes: Determination of the IC50 for plasma kallikrein
particulars: read-out: IC50 (human PKal)
# output: bare number, implied unit nM

# IC50 lookup, item Nc1nn(Cc2ccc(Cn3ccccc3=O)cc2)cc1C(=O)N[C@H]1CCN(Cc2cccc(Cl)c2)C1
384

# IC50 lookup, item Nc1nn(Cc2ccc(C(=O)N3CCCC3)cc2)cc1C(=O)NCCOc1cccc(Cl)c1
427

---

subject_of_test: Human plasma kallikrein (Homo sapiens (Human), UniProt P03952)
Sequence (P03952 391-638): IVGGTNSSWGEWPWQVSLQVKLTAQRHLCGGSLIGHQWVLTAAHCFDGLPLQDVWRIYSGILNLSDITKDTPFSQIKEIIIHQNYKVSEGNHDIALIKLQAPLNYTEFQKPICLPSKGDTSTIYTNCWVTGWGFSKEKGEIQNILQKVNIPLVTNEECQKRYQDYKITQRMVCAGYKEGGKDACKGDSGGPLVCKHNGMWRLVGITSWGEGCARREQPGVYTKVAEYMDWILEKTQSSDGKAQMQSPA
Sequence (P03952 20-390 partner): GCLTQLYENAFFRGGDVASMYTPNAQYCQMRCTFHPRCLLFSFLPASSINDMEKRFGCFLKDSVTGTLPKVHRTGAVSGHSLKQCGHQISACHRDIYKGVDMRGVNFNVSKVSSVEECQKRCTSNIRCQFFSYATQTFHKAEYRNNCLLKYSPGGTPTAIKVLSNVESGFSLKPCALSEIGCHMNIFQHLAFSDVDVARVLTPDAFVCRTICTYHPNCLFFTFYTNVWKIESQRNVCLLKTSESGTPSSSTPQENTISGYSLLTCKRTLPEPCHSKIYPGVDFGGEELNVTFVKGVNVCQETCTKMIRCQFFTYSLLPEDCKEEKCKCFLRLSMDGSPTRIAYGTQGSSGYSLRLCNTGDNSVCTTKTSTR
measurement_notes: Determination of the IC50 for plasma kallikrein
particulars: read-out: IC50 (human PKal)
quantity: pIC50
The meaning of pIC50 here: minus log10 of the concentration in molar units.

# pIC50 lookup, item COCc1nn(Cc2ccc(Cn3ccccc3=O)cc2)cc1C(=O)NCCOc1cccc(Cl)c1
7.78

# pIC50 lookup, item Nc1nn(Cc2ccc(Cn3c(F)cccc3=O)cc2)cc1C(=O)NCCOc1cccc(Cl)c1
5.68

# pIC50 lookup, item CN(CCNC(=O)c1cn(Cc2ccc(Cn3ccccc3=O)cc2)nc1N)c1cccc(Cl)c1
6.58

# pIC50 lookup, item Nc1nn(Cc2ccnc(N3CCCC3)c2)cc1C(=O)NCCOc1cccc(Cl)c1
6.49

# pIC50 lookup, item Nc1c(C(=O)NCCOc2cccc(Cl)c2)cnn1Cc1ccc(C(=O)N2CCCC2)cc1
5.20

# pIC50 lookup, item CC(C)C(=O)N(C)Cc1ccc(Cn2cc(C(=O)NCCOc3cccc(Cl)c3)c(N)n2)cc1
6.14

---

subject_of_test: Human FXIa (Homo sapiens (Human), UniProt P03951)
Sequence (P03951 388-625 limits assumed): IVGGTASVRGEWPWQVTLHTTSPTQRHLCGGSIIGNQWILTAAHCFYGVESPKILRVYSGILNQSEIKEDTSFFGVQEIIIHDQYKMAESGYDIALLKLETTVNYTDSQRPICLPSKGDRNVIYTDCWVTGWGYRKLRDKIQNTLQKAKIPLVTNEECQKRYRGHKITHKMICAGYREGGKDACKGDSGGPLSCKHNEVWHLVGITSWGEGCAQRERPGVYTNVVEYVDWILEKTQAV
Sequence (P03951 19-387 partner limits assumed): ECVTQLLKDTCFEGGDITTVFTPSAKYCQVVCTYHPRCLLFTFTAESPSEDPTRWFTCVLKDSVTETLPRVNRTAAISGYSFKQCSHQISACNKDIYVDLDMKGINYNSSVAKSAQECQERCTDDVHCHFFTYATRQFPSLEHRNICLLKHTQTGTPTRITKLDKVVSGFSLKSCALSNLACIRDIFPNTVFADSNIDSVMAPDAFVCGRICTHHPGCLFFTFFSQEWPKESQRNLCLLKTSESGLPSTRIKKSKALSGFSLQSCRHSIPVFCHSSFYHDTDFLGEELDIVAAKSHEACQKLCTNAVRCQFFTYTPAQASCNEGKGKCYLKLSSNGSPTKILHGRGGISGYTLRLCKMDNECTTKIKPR
measurement_notes: Determination of the % inhibition for FXIa
Assay type: biochemical
particulars: 40 μM of the test compound, human FXIa, 25° C.; read-out: % Inhibition @ 40 μM (human FXIa)
Procedure: Determination of the % Inhibition for FXIa Human FXIa (Enzyme Research Laboratories) was incubated at 25° C. with the fluorogenic substrate Z-Gly-Pro-Arg-AFC and 40 μM of the test compound. Residual enzyme activity (initial rate of reaction) was determined by measuring the change in […].
Kindly state inhibition at 40 µM for each of the entries shown.
# output: bare number, implied unit %

# inhibition at 40 µM lookup, item Nc1nn(Cc2ccc(Cn3ccccc3=O)cc2)cc1C(=O)NCC(=O)Nc1cccc(Cl)c1 [Example 2]
0

# inhibition at 40 µM lookup, item C[C@H](COc1cccc(Cl)c1)NC(=O)c1cn(Cc2ccc(Cn3ccccc3=O)cc2)nc1N [Example 113]
3

# inhibition at 40 µM lookup, item Nc1nn(Cc2ccc(CN3CCOCC3=O)cc2)cc1C(=O)NCCOc1cccc(Cl)c1 [Example 76]
0

# inhibition at 40 µM lookup, item Nc1nn(Cc2ccc(COc3ncccn3)cc2)cc1C(=O)NCCOc1cccc(Cl)c1 [Example 75]
0

# inhibition at 40 µM lookup, item Nc1nn(Cc2ccc(Cn3ccccc3=O)cc2)cc1C(=O)N[C@H]1CCN(Cc2cccc(Cl)c2)C1 [Example 109]
0

# inhibition at 40 µM lookup, item Cc1cccn(Cc2ccc(Cn3cc(C(=O)NCCOc4cccc(Cl)c4)c(N)n3)cc2)c1=O [Example 85]
1

# inhibition at 40 µM lookup, item COc1cc(Cn2cc(C(=O)NCCOc3cccc(Cl)c3)c(N)n2)ccn1 [Example 73]
0

# inhibition at 40 µM lookup, item Nc1nn(Cc2nc(-c3ccccc3)no2)cc1C(=O)NCCOc1cccc(Cl)c1 [Example 80]
0

# inhibition at 40 µM lookup, item CNC(=O)CN(C)c1cc(Cn2cc(C(=O)NCCOc3cccc(Cl)c3)c(N)n2)ccn1 [Example 74]
4

# inhibition at 40 µM lookup, item Cc1ccc(Cl)cc1OCCNC(=O)c1cn(Cc2ccc(Cn3ccccc3=O)cc2)nc1N [Example 14]
0

# inhibition at 40 µM lookup, item Nc1nn(Cc2ccc(Cn3ccccc3=O)cc2)cc1C(=O)NCCOc1cccc(Cl)c1Cl [Example 29]
0

# inhibition at 40 µM lookup, item CNC(=O)CNc1ccc(Cn2cc(C(=O)NCCOc3cccc(Cl)c3)c(N)n2)cn1 [Example 78]
4

# inhibition at 40 µM lookup, item Cc1ccc2cc(Cn3cc(C(=O)NCCOc4cccc(Cl)c4)c(N)n3)ccc2n1 [Example 54]
67

# inhibition at 40 µM lookup, item O=C(NCCOc1cccc(Cl)c1)c1cn(Cc2ccc(N3CCCC3)nc2)nc1C(F)(F)F [Example 28]
0

# inhibition at 40 µM lookup, item C[C@@H](COc1cccc(Cl)c1)NC(=O)c1cn(Cc2ccc(Cn3ccccc3=O)cc2)nc1N [Example 114]
0

# inhibition at 40 µM lookup, item Nc1nn(Cc2ccc(Cn3ccccc3=O)cc2)cc1C(=O)N[C@H]1CCN(c2cccc(Cl)c2)C1 [Example 105]
0

# inhibition at 40 µM lookup, item Cc1cnn(-c2ccc(Cn3cc(C(=O)NCCOc4cccc(Cl)c4)c(N)n3)cn2)c1 [Example 89]
33

# inhibition at 40 µM lookup, item O=C(NCCOc1cccc(Cl)c1)c1cnn(Cc2ccc(Cn3ccccc3=O)cc2)c1 [Example 36]
0

---

Kindly state pIC50 for each of the entries shown.
subject_of_test: Human plasma kallikrein (Homo sapiens (Human), UniProt P03952)
measurement_notes: Determination of the IC50 for plasma kallikrein
particulars: read-out: IC50 (human PKal)
The meaning of pIC50 here: minus log10 of the concentration in molar units.

# pIC50 lookup, item Nc1nn(Cc2ccc(Cn3ccccc3=O)cc2)cc1C(=O)NCCCc1cccc(Cl)c1 [Example 42]
8.49

# pIC50 lookup, item Cc1cc(Cl)cc(OCCNC(=O)c2cn(Cc3ccc(Cn4ccccc4=O)cc3)nc2N)c1 [Example 33]
6.94

# pIC50 lookup, item Nc1nn(Cc2ccc(Cn3ccccc3=O)cc2)cc1C(=O)N[C@@H]1CCN(Cc2cccc(Cl)c2)C1 [Example 108]
6.52

# pIC50 lookup, item Cc1ccc(Cl)cc1OCCNC(=O)c1cn(Cc2ccc(Cn3ccccc3=O)cc2)nc1N [Example 14]
6.79

# pIC50 lookup, item Nc1nn(Cc2ccc(Cn3ccccc3=O)cc2)cc1C(=O)NCCOc1cc(Cl)ccc1Cl [Example 34]
7.03

# pIC50 lookup, item Nc1nn(Cc2ccc(N3CCCC3)nc2)cc1C(=O)NCCOc1cccc(Cl)c1 [Example 49]
6.07

# pIC50 lookup, item Nc1nn(Cc2ccnc(-c3cccnc3)c2)cc1C(=O)NCCOc1cccc(Cl)c1 [Example 91]
5.42

---

measurement_notes: Pharmacokinetics following a single oral dose in rats
Format: in vivo
particulars: rat, male Sprague-Dawley rats, nominal 10 mg/kg in 10% DMSO/10% cremophor/80% SWFI, plasma, actual dose 7.6 mg/kg (Example 115), 8.4 mg/kg (Example 85)
quantity: Tmax (min)
# output: bare number, implied unit min

# Tmax lookup, item C[C@@H](CNC(=O)c1cn(Cc2ccc(Cn3ccccc3=O)cc2)nc1N)Oc1cccc(Cl)c1 [Example 115]
30

# Tmax lookup, item Cc1cccn(Cc2ccc(Cn3cc(C(=O)NCCOc4cccc(Cl)c4)c(N)n3)cc2)c1=O [Example 85]
45

---

subject_of_test: Human FXIa (Homo sapiens (Human))
measurement_notes: Determination of the % inhibition for FXIa
Type: biochemical
particulars: 40 μM of the test compound, human FXIa, 25° C.; read-out: % Inhibition @ 40 μM (human FXIa)
quantity: inhibition at 40 µM

# inhibition at 40 µM lookup, item Nc1nn(Cc2ccc(-n3cccn3)nc2)cc1C(=O)NCCOc1cccc(Cl)c1
0%

# inhibition at 40 µM lookup, item Nc1nn(Cc2cccc(N3CCCC3)n2)cc1C(=O)NCCOc1cccc(Cl)c1
0%

# inhibition at 40 µM lookup, item Nc1nn(Cc2ccc(Cn3ccccc3=O)cc2)cc1C(=O)NCCOc1cncc(Cl)c1
0%

# inhibition at 40 µM lookup, item Nc1nn(Cc2ccc(Cn3ccccc3=O)cc2)cc1C(=O)NCCOc1cccc(Cl)c1
2%

# inhibition at 40 µM lookup, item CNC(=O)CNc1cc(Cn2cc(C(=O)NCCOc3cccc(Cl)c3)c(N)n2)ccn1
0%

# inhibition at 40 µM lookup, item Nc1nn(Cc2ccc(Cn3cccnc3=O)cc2)cc1C(=O)NCCOc1cccc(Cl)c1
0%

# inhibition at 40 µM lookup, item N#Cc1ccc(Cl)cc1OCCNC(=O)c1cn(Cc2ccc(Cn3ccccc3=O)cc2)nc1N
10%

# inhibition at 40 µM lookup, item Nc1nn(Cc2ccc(-n3ccccc3=O)cc2)cc1C(=O)NCCOc1cccc(Cl)c1
0%

All figures here come from patent US10781181B2.
